Source: PubChem BioAssay AID504332

# TARGET: Histone-lysine N-methyltransferase EHMT2 (Homo sapiens)
# TEST SUMMARY: qHTS Assay for Inhibitors of Histone Lysine Methyltransferase G9a; also: nearly all actives have a fitted effect of over 75% in size
# TEST SETTINGS: G9a H3K9 monomethylation, AlphaScreen, 2 h; series mostly up to 59 µM
About 31,000 (8.9%) of roughly 350,000 compounds were called active. Another 15% or so got no clear call; they are omitted. Calls follow the shape of the dose curve; as a rule, active = well fitted inhibition curve with a large enough effect; inconclusive = small, poorly fitted or top-dose-only effect; inactive = no such curve, though single readings can be large or run the other way. The sample holds actives, similar compounds and a random draw of the others, so the mix is not that of the screen.
// one of active, inactive, no free text

Request: # lookup: test call for C=CCn1c(SCc2ccccc2)nc2c1c(=O)[nH]c(=O)n2C
Response: active

Request: Dear colleague, could you share the recorded outcome for C=CCSc1nc2c(c(=O)[nH]c(=O)n2C)n1Cc1ccccc1 when you have a moment?
Response: inactive

Request: Dear all, I need the recorded test outcome for CN1CCN(c2ccc(S(=O)(=O)Nc3ccccc3)cc2[N+](=O)[O-])CC1 , thank you.
Response: inactive

Request: How was O=C(NCCc1ccccc1)c1cnc2sc(N3CCCC3)nn2c1=O classified in this test?
Response: inactive

Request: What did the test return for O=C(O)CCCn1cc(NC(=O)COc2cccc(Cl)c2)cn1 ?
Response: inactive

Request: Recorded test call requested for CC1CCN(C(=O)C2CCN(S(=O)(=O)N3CCC4(CC3)OCCO4)CC2)CC1
Response: inactive

Request: Which outcome did this test record for the compound CC(CCc1ccccc1)NC(=O)COC(=O)c1ccc(F)cc1 (stereo unspecified) ?
Response: inactive

Request: For Cc1ccc(NC(=O)CSc2nnc3[nH]c(=O)cc(C)n23)cc1Cl , which call appears in the assay record?
Response: inactive

Request: Outcome? COc1ccc(NS(=O)(=O)c2ccc(NC(C)=O)cc2)cc1OC
Response: inactive

Request: Tell me the assay call for CCCNc1ncnc2c1c(-c1ccccc1)cn2-c1ccc(OCC)cc1 please.
Response: inactive

Request: Which outcome was assigned to Cc1ccc(C)c(N2CCN(S(=O)(=O)c3ccc4c(c3)C(C(C)C)C(=O)N4)CC2)c1 (stereo unspecified) in this test?
Response: inactive

###

# TARGET: Histone-lysine N-methyltransferase EHMT2 (Homo sapiens)
# TEST SUMMARY: qHTS Assay for Inhibitors of Histone Lysine Methyltransferase G9a; also: nearly all actives have a fitted effect of over 75% in size
# TEST SETTINGS: G9a H3K9 monomethylation, AlphaScreen, 2 h; series mostly up to 59 µM
In all, about 350,000 compounds went through this assay and about 31,000 (8.9%) were called active. Inconclusive results (about 15%) are left out. The call rests on the fitted dose curve; in most records, active means well fitted inhibition curve with a large enough effect; inconclusive means small, poorly fitted or top-dose-only effect; inactive means no such curve, though single readings can be large or run the other way. What follows is part of a selection rich in actives, with near analogues and random picks from the rest.
# output must be one of active, inactive

Request: How was Cn1nc(-c2ccccc2)c2cc([N+](=O)[O-])ccc21 classified in this test?
Response: inactive

Request: Assay outcome for CCc1ccc(NC(=O)Cn2c(=O)n(CCC(=O)NCc3ccc4c(c3)OCO4)c(=O)c3ccccc32)cc1 : what was it?
Response: inactive

Request: # outcome recorded in this test, key = CCN1CCN(c2cc3nc(C)n(Cc4ccccc4)c(=O)c3cc2NC(=O)c2ccccc2F)CC1
Response: active

Request: Given Cn1c(=O)c([N+](=O)[O-])c(Oc2ccccc2)c2ccccc21 , state the outcome it received in this test.
Response: active

Request: Per the assay record, what outcome was assigned to Cc1cccc(C2CC(=O)Oc3c2c(=O)n(C)c2ccccc32)c1 (stereo not given) ?
Response: inactive

###

# TARGET: Histone-lysine N-methyltransferase EHMT2 (Homo sapiens)
# TEST SUMMARY: qHTS Assay for Inhibitors of Histone Lysine Methyltransferase G9a; also: nearly all actives have a fitted effect of over 75% in size
# TEST SETTINGS: G9a H3K9 monomethylation, AlphaScreen, 2 h; series mostly up to 59 µM
Screen size: about 350,000 compounds; about 31,000 (8.9%) were called active. Another 15% or so got no clear call; they are omitted. Calls come from the whole dose curve; as a rule, active = well fitted inhibition curve with a large enough effect; inconclusive = small, poorly fitted or top-dose-only effect; inactive = no such curve, though single readings can be large or run the other way. This is one part of a sample in which actives are shown more often than they occur.
Hi! Could you answer with just one of these? Y (active), N (inactive)

Request: Check the results log: what was the call for Cc1cccc(C(=O)NCC(=O)OCC(=O)N2CC3(C)CC2CC(C)(C)C3)c1 (stereo not given) ?
Response: Y

Request: What classification did COc1ccccc1C1/C(=C(/O)c2ccc(OC(C)C)cc2)C(=O)C(=O)N1c1cc(C)on1 (stereo not given) end up with in this test?
Response: Y

Request: What outcome does the record of this test show for COc1ccc(C(=O)CSc2nc(C)cc(C)n2)cc1[N+](=O)[O-] ?
Response: N

Request: Called result for O=C(O)c1ccc2c(c1)N(Cc1ccc(F)cc1)C(=O)c1ccccc1S2=O (stereo not given)
Response: N

Request: Name the outcome recorded for CCCc1cc(=O)[nH]c(SCC(=O)c2c(N)n(CC(C)C)c(=O)n(C)c2=O)n1 in the assay.
Response: N

Request: Please indicate how the test categorized COc1ccc(OCc2cn3c(C)cc(C)nc3n2)cc1 .
Response: N

Request: GET /call?item= Cc1cc(N2C(=O)C(=O)/C(=C(/O)c3ccc(Cl)cc3)C2c2cccc(Br)c2)no1 (stereo not given) returns the recorded outcome of this test.
Response: N

Request: Test call, this molecule: Cc1nnnn1/C(=C\c1ccccc1)C(=O)OCC(=O)N1CC2(C)CC1CC(C)(C)C2 (stereo not given)
Response: N

Request: In this assay, the call recorded for Cc1ccc(C)c2sc(NC(=O)c3ccc(S(=O)(=O)N4CCCC4)cc3)nc12 was what?
Response: N

Request: Tell me the assay call for COc1ccc(C(C[N+](=O)[O-])n2nc(C)cc2C)cc1 (stereo not given) please.
Response: Y

###

# TARGET: Histone-lysine N-methyltransferase EHMT2 (Homo sapiens) (UniProt Q96KQ7)
# Sequence (Q96KQ7 913-1193 limits assumed): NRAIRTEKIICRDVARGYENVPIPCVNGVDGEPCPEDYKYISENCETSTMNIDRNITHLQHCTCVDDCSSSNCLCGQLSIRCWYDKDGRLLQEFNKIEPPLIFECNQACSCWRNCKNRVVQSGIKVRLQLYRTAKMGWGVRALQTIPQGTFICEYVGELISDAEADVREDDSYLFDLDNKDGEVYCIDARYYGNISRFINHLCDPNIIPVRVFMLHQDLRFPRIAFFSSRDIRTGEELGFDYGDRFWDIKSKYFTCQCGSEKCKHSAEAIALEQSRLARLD
# TEST SUMMARY: qHTS Assay for Inhibitors of Histone Lysine Methyltransferase G9a; also: nearly all actives have a fitted effect of over 75% in size; as to activity, negative = inhibition: % is scaled to controls: 0 for no effect and ±100 for the full control effect
# TEST SETTINGS: G9a H3K9 monomethylation, AlphaScreen, 2 h; series mostly up to 59 µM
Among all 350,000 compounds or so, about 31,000 (8.9%) were called active. Another 15% or so got no clear call; they are omitted. The full list was thinned out, with actives kept by preference.
Answer each item with its documented activity, negative = inhibition.

Request: Fill blank: measured activity, negative = inhibition of the compound N#Cc1ccccc1-n1c(N)c(C(=O)N2CCCC2)sc1=S is ____.
Response: 19.8% [at 0.501 µM] (inactive)

Request: What value of activity, negative = inhibition has been recorded for this entry: Cc1cccc(C(=O)N2CCCN(C(=O)c3cccc(C)c3)CC2)c1
Response: -5.03% [at 12.7 µM] (inactive)

Request: Recorded activity, negative = inhibition of Cc1cc(C)cc(NC(=O)C(OC(=O)c2ccc(O)cc2)c2ccccc2)c1 (stereo unspecified) , please.
Response: -7.57% [at 12.7 µM] (inactive)

Request: # query: activity, negative = inhibition of entry c1ccc(CC2CCN(c3nc4ccccc4n4cnnc34)CC2)cc1
Response: 26.6% [at 12.7 µM] (inactive)

Request: Tell me the measured activity, negative = inhibition of CN1C(C(=O)NCC2CC2)CC2Cn3c(nc4ccccc43)C21 (stereo unspecified) , please.
Response: 2.03% [at 2.33 µM] (inactive)

Request: Recorded activity, negative = inhibition of CCc1cccc(NC(=O)COC(=O)C2CCN(c3ccc(C(F)(F)F)cn3)CC2)c1 , please.
Response: 10.8% [at 0.501 µM] (inactive)

###

# TARGET: Histone-lysine N-methyltransferase EHMT2 (Homo sapiens)
# TEST SUMMARY: qHTS Assay for Inhibitors of Histone Lysine Methyltransferase G9a; also: nearly all actives have a fitted effect of over 75% in size; also: potency is read from the fitted curve at half-maximal effect
# TEST SETTINGS: G9a H3K9 monomethylation, AlphaScreen, 2 h; series mostly up to 59 µM
In all, about 350,000 compounds went through this assay and about 31,000 (8.9%) were called active. Not shown: some 15% with an inconclusive outcome. What follows is part of a selection rich in actives, with near analogues and random picks from the rest.
REPORTED ENDPOINT: Potency

Some compounds with recorded Potency:
CCN1CCN(C2CCCCC2NS(=O)(=O)c2ccc(Cl)cc2)CC1 (stereo unspecified)
inactive
O=S(=O)(Nc1ccc2nc(N3CCOCC3)sc2c1)c1ccccc1
50.1 µM (active)
COc1ccc(Nc2cc(C(=O)NCCCN(C)c3ccccc3)c3ccccc3n2)c(OC)c1
7.94 µM (active)
CC(C)(C)NC(=O)CSc1nnc(NC(=O)CCc2ccccc2)s1
inactive
CC(=O)c1ccc(N2CCN(C3C(=O)c4ccccc4N3C(C)=O)CC2)cc1 (stereo unspecified)
inactive

// next entry
Request: Please report the recorded Potency for Brc1ccc2nc(N3CCCC3)sc2c1 .
Response: inactive
